- Experiment Summary: drug combination growth inhibition, ovarian cancer – cell-based, oncology-focused library, rucaparib conditional, profiling panel (AID 1508598)
- Recorded Conditions: patient-derived ovarian cancer cells, CellTiter-Glo viability, 144 h; at 0.313 µM; OCI-C5x cells; with rucaparib 10 µM; 100% = cells with rucaparib alone
Activity calls are given as the source filed them.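 How the source made its calls: active means normalized viability below 100% at a tested concentration; inactive means the rest.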
Thanks in advance; please answer with one of these: active, inactive

// below: answered molecules
Molecule | Label Class
C=CC(=O)N1CCC[C@@H](n2nc(-c3ccc(Oc4ccccc4)cc3)c3c(N)ncnc32)C1 | inactive
Cc1nc2c(-c3cnc(N)nc3)nc(N3CCOCC3)nc2n1C(C)C | inactive
C[C@H](NC(=O)Cc1cc(F)cc(F)c1)C(=O)N[C@@H]1C(=O)N(C)c2ccccc2-c2ccccc21 | inactive
N#CCNC(=O)c1ccc(-c2ccnc(Nc3ccc(N4CCOCC4)cc3)n2)cc1 | inactive
CC1COC2(CCN(c3nc(=O)c4cc(C(F)(F)F)cc([N+](=O)[O-])c4s3)CC2)O1 (stereo not given) | inactive
CN(C)C/C=C/C(=O)Nc1cc2c(Nc3ccc(F)c(Cl)c3)ncnc2cc1O[C@H]1CCOC1 | active
Nc1cccc2c1C(=O)N(C1CCC(=O)NC1=O)C2=O (stereo not given) | inactive
CCC[C@H](NC(=O)/C(C#N)=C/c1cccc(Br)n1)c1ccccc1 | inactive
Nc1ccn([C@@H]2O[C@H](CO)[C@@H](O)C2(F)F)c(=O)n1 | active
Cn1cc(-c2ccc3c(c2)CCN3C(=O)Cc2cccc(C(F)(F)F)c2)c2c(N)ncnc21 | inactive

Dear all, I need the recorded test outcome for NC(=O)Nc1cc(-c2cccc(F)c2)sc1C(=O)N[C@H]1CCCNC1 , thank you.
active

Any idea what this test logged for Cn1c(=O)c(F)c(Nc2ccc(I)cc2F)c2c(=O)n(C[C@@H](O)CO)cnc21 ?
active

Outcome? CS(=O)(=O)c1cccc(CNc2nc(Nc3ccc4c(c3)CCC(=O)N4)ncc2C(F)(F)F)c1
inactive

How was O=C(Nc1ccc(OC(F)(F)F)cc1)c1sccc1NCc1ccnc2ccccc12 classified in this test?
active

// param item: CCNC(=O)c1noc(-c2cc(C(C)C)c(O)cc2O)c1-c1ccc(CN2CCOCC2)cc1 ; yields the recorded call
active

How was CCN(CC)CCCCNc1ncc2cc(-c3cc(OC)cc(OC)c3)c(NC(=O)NC(C)(C)C)nc2n1 classified in this test?
inactive

What did this assay record as the result for C/C(=C\C(=O)Nc1ccccc1C(=O)O)c1ccc2ccccc2c1 ?
active

---

- Experiment Summary: drug combination growth inhibition, ovarian cancer – cell-based, oncology-focused library, rucaparib conditional, profiling panel (AID 1508598)
- Recorded Conditions: patient-derived ovarian cancer cells, CellTiter-Glo viability, 144 h; at 1.25 µM; OCI-C5x cells; without rucaparib; hits give low values
Property Label: viability (%)
Answers are plain numbers, in %.

Compound | Readout Value
C/C(=C\C(=O)Nc1ccccc1C(=O)O)c1ccc2ccccc2c1 | 108

Your task in this section: give viability for each listed record.
1. Cc1c(NC(=O)OC[C@@H]2COCCN2)cn2ncnc(Nc3ccc4c(cnn4Cc4cccc(F)c4)c3)c12
2. CCOc1ccn(-c2ccc(F)cc2)c(=O)c1C(=O)Nc1ccc(Oc2ccnc(N)c2Cl)c(F)c1
3. COc1nc(C)cnc1NS(=O)(=O)c1cccnc1-c1ccc(-c2nnco2)cc1
4. COc1ccc(-n2c(SCCCN3C(=O)c4cccc5cccc(c45)C3=O)nnc2-c2ccncc2)cc1
5. C[C@@H](Oc1cc(-n2cnc3ccc(CN4CCN(C)CC4)cc32)sc1C(N)=O)c1ccccc1C(F)(F)F
6. C#Cc1cccc(Nc2ncnc3cc(OC)c(OCCCCCCC(=O)NO)cc23)c1
7. Cc1ccc(F)c(NC(=O)Nc2ccc(-c3cccc4[nH]nc(N)c34)cc2)c1

140
120
112
128
28.8
39.1
123

# batch size: 7; output viability per entry
1. Cc1cccc(-c2nn3c(c2-c2ccnc4ccc(C(N)=O)cc24)CCC3)n1
2. Cc1nnc(C(C)C)n1C1CC2CCC(C1)N2CC[C@H](NC(=O)C1CCC(F)(F)CC1)c1ccccc1 (some centres not stated)
3. Nc1ccccc1NC(=O)c1ccc(CNc2nccc(-c3cccnc3)n2)cc1
4. Cn1cc(-c2ccc3nnc(C(F)(F)c4ccc5ncccc5c4)n3n2)cn1
5. CS(=O)(=O)N1CCN(Cc2cc3nc(-c4cccc5[nH]ncc45)nc(N4CCOCC4)c3s2)CC1
6. CC[C@@H]1C(=O)N(C)c2cnc(Nc3ccc(C(=O)NC4CCN(C)CC4)cc3OC)nc2N1C1CCCC1
7. COc1cc2nccc(Oc3ccc(NC(=O)C4(C(=O)Nc5ccc(F)cc5)CC4)cc3)c2cc1OC

[135, 108, 5.69, 123, 123, 18.2, 133]

---

Please respond with reported viability for every item in the list.
- Experiment Summary: drug combination growth inhibition, ovarian cancer – cell-based, oncology-focused library, rucaparib conditional, profiling panel (AID 1508598)
- Recorded Conditions: patient-derived ovarian cancer cells, CellTiter-Glo viability, 144 h; at 0.313 µM; OCI-C5x cells; without rucaparib; hits give low values
Give bare numbers, in %.

Check out these entries, answers already filled in.
Compound | viability (%)
C=CC(=O)Nc1cccc(Oc2nc(Nc3ccc(N4CCN(C)CC4)cc3OC)ncc2Cl)c1 | 120
C=CC(=O)N1CCC[C@@H](n2nc(-c3ccc(Oc4ccccc4)cc3)c3c(N)ncnc32)C1 | 120
Cn1cncc1[C@@](N)(c1ccc(Cl)cc1)c1ccc2c(c1)c(-c1cccc(Cl)c1)cc(=O)n2C | 99.3
CCc1cc(Nc2nccc(-c3c(-c4ccc(OC)c(C(=O)Nc5c(F)cccc5F)c4)nc4ccccn34)n2)c(OC)cc1N1CCC(N2CCN(S(C)(=O)=O)CC2)CC1 | 152
CC(C)C[C@H](NC(=O)CNC(=O)c1cc(Cl)ccc1Cl)B1OC(=O)CC(CC(=O)O)(C(=O)O)O1 (stereo partly drawn) | 16.8

Value sought for every listed compound: viability.
1. COc1cc(Nc2nc3ccccc3nc2NS(=O)(=O)c2ccc(NC(=O)c3ccc(C)c(OC)c3)cc2)cc(OC)c1
2. COc1cc2c(Oc3ccc4[nH]c(C)cc4c3F)ncnc2cc1OCCCN1CCCC1
3. CNC(=O)c1cc(Oc2ccc(NC(=O)Nc3ccc(Cl)c(C(F)(F)F)c3)c(F)c2)ccn1

1. 116
2. 98.1
3. 102

---

- Experiment Summary: drug combination growth inhibition, ovarian cancer – cell-based, oncology-focused library, rucaparib conditional, profiling panel (AID 1508598)
- Recorded Conditions: patient-derived ovarian cancer cells, CellTiter-Glo viability, 144 h; at 0.0781 µM; OCI-P5x cells; with rucaparib 20 µM; 100% = cells with rucaparib alone
Active and inactive are the calls of the source.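 The calls were made as follows: active = normalized viability below 100% at a tested concentration; inactive = the rest.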
Classes to choose from: true (1) for active, false (0) for inactive

Consider the worked cases shown below.
Compound | Label Class
CCOc1cc(N2CCC(O)CC2)ccc1Nc1ncc2c(n1)N(C)c1ccccc1C(=O)N2C | true (1)
CCC[C@H](Nc1nc(-c2ccc(NC(=O)NCC)c(OC)c2)ncc1C)c1cccnc1 | true (1)
CS(=O)(=O)c1ccc(C(=O)Nc2ccc(Cl)c(-c3ccccn3)c2)c(Cl)c1 | false (0)
CN[C@H]1CN(c2ccc3c(=O)c(C(=O)O)cn(-c4nccs4)c3n2)C[C@@H]1OC | true (1)
O=C(Nc1cn[nH]c1-c1nc2ccc(CN3CCOCC3)cc2[nH]1)NC1CC1 | false (0)
CN1CCN(c2ccc3nc(-c4c(N)c5c(F)cccc5[nH]c4=O)[nH]c3c2)CC1 | false (0)
Oc1cccc(-c2nc(N3CCOCC3)c3oc4ncccc4c3n2)c1 | true (1)
O=C(Cc1ccc(-c2ccc(OCCN3CCOCC3)cc2)cn1)NCc1ccccc1 | true (1)
Cn1cc(-c2ccc3nnc(Sc4ccc5ncccc5c4)n3n2)cn1 | false (0)
CN(C)C/C=C/C(=O)Nc1cc2c(Nc3ccc(F)c(Cl)c3)ncnc2cc1O[C@H]1CCOC1 | false (0)

Please let me know the test result on file for CC(C)[C@H](C(=O)Nc1ccc(C(=O)NO)cc1)c1ccccc1 .
true (1)

Would you mind telling me which call this test gave Cc1cn(-c2cc(NC(=O)c3ccc(C)c(Nc4nccc(-c5cccnc5)n4)c3)cc(C(F)(F)F)c2)cn1 ?
true (1)

Please let me know the test result on file for COc1ccc(COc2cc3oc(=O)c4cc(C(C)O)ccc4c3cc2OC)cc1 (stereo not given) .
false (0)

Given CC(=O)Nc1nc(C)c(-c2ccc(Cl)c(S(=O)(=O)NCCO)c2)s1 , state the outcome it received in this test.
true (1)

Outcome logged for Cc1cccc(Nc2nc(-c3ccncc3)cs2)c1 in this assay:
false (0)

---

- Experiment Summary: viability loss in pontine glioma line – cell-based, SU-DIPG-XXV, MIPE5.0, CellTiter-Glo, qHTS, dose response (AID 1347065);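 further: cells exposed to compound for 48 hours before ATP readout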
- Recorded Conditions: CellTiter-Glo ATP luminescence
Records with an inconclusive call do not appear. Activity calls are given as the source filed them. The limit is not given here; nearly all actives have AC50 up to about 26 µM.
Property Label: AC50

Provide each entry's AC50 from the list below.
1. C=CC(=O)Nc1cccc(Oc2nc(Nc3ccc(N4CCN(C)CC4)cc3)ncc2Cl)c1
2. Cc1ncc(NC(=O)c2ccc(CN3CCN(C)CC3)c(C(F)(F)F)c2)cc1Nc1nccc(-c2cccnc2)n1
3. CC(=O)c1cc2c(o1)C(=O)c1ccccc1C2=O
4. Cc1ccc(S(=O)(=O)Nc2cc(C(F)(F)F)ccc2C(=O)Nc2nc(-c3ccccc3)cs2)cc1
5. CN1C(=O)c2sccc2N(C)c2nc(Nc3ccc(S(N)(=O)=O)cc3)ncc21

1: 0.372 µM (active); 2: 18.6 µM (active); 3: 2.95 µM (active); 4: 3.72 µM (active); 5: 3.72 µM (active)
